All values here come from patent US6169181A.

- TGT: HIV-1 protease (Human immunodeficiency virus type 1 group M subtype B)
- EXPERIMENT_SUMMARY: biochemical
- EXPERIMENTAL_PARAMETERS: Table II; enzyme HIV-1; DOSE 30.000 (unit not given)
For each record, write down the corresponding PROTEASE % INHIB..
Answers are plain numbers, in %.

The following molecules have reported results that may help.
1. CCC[C@@]1(CCc2ccc(F)cc2)CC(O)=C([C@@H](c2cccc(NS(=O)(=O)c3ccc(N)cn3)c2)C(C)(C)C)C(=O)O1 (single isomer, unassigned) [Example 317] :: 108.59
2. CC(C)(C)C(C1=C(O)CC(CCc2ccccc2)(CCc2ccccc2)OC1=O)c1cccc(NS(=O)(=O)c2ccc(N)cn2)c1 (single isomer, unassigned) [Example 355] :: 67.82
3. CCCC1(CCC)CC(O)=C(C(c2cccc(NS(=O)(=O)c3cn(C)cn3)c2)C(C)(C)C)C(=O)O1 (single isomer, unassigned) [Example 319] :: 74.48
4. CCCC1(CCc2ccccc2)CC(O)=C(C(c2cccc(NS(=O)(=O)c3ccccn3)c2)C(C)(C)C)C(=O)O1 (single isomer, unassigned) :: 86.18
5. CCC(C1=C(O)CC(CCc2ccccc2)(CCc2ccccc2)OC1=O)c1cccc(NS(=O)(=O)c2cn(C)cn2)c1 (centres unmarked) :: 69.82
6. Cn1cnc(S(=O)(=O)Nc2cccc(C(C3=C(O)CC(CCc4ccccc4)(CCc4ccccc4)OC3=O)C(C)(C)C)c2)c1 (centres unmarked) :: 46

Provide each entry's PROTEASE % INHIB. from the list below.
1. CC(C)CC1(CC(C)C)CC(O)=C(C(c2cccc(NS(=O)(=O)c3cn(C)cn3)c2)C(C)(C)C)C(=O)O1 (racemic)
2. CCCC1(CCc2ccc(F)cc2)CC(O)=C(C(c2cccc(NS(=O)(=O)c3ccc(C#N)cc3)c2)C(C)(C)C)C(=O)O1 (centres unmarked)
3. CCCC1(CCc2ccc(F)cc2)CC(O)=C(C(CC)c2cccc(NS(=O)(=O)c3ccc(C(N)=O)cn3)c2)C(=O)O1 (centres unmarked)
4. Nc1ccc(S(=O)(=O)Nc2cccc(CC3=C(O)CC(CCc4ccccc4)(CCc4ccccc4)OC3=O)c2)nc1
5. CC(C)(C)C(C1=C(O)CC(CCc2ccccc2)(CCc2ccccc2)OC1=O)c1cccc(NS(=O)(=O)c2ccc(C#N)cn2)c1 (centres unmarked)
6. CCC(C1=C(O)C2CCCCCC2OC1=O)c1cccc(NS(=O)(=O)c2ccc(C#N)cn2)c1 (centres unmarked)
7. CCC(C1=C(O)CC(CC(C)C)(CC(C)C)OC1=O)c1cccc(NS(=O)(=O)c2ccc(C#N)cn2)c1 (racemic)

*A*
57.83
92.17
95.08
54.5
46.24
106.18
79.68

Answer for every listed entry: what is its PROTEASE % INHIB.? The entries follow.
1. CCC[C@@]1(CCc2ccc(F)cc2)CC(O)=C([C@H](c2cccc(NS(=O)(=O)c3ccc(C#N)cn3)c2)C(C)(C)C)C(=O)O1 (single isomer, unassigned)
2. CCC(C1=C(O)CC(CCc2ccc(F)cc2)(CCc2ccc(F)cc2)OC1=O)c1cccc(NS(=O)(=O)c2ccc(C(N)=O)cn2)c1 (centres unmarked)
3. CCCC1(CCC)CC(O)=C(C(c2cccc(NS(=O)(=O)c3ccc(C(F)(F)F)cn3)c2)C(C)(C)C)C(=O)O1 (single isomer, unassigned) [Example 286]
4. CC(C)CC1(CC(C)C)CC(O)=C(C(c2cccc(NS(=O)(=O)c3ccc(C#N)cn3)c2)C(C)(C)C)C(=O)O1 (racemic)
5. CCC[C@@]1(CCc2ccccc2)CC(O)=C([C@H](CC)c2cccc(NS(=O)(=O)c3ccc(N)cn3)c2)C(=O)O1 (single isomer, unassigned) [Example 314]

*A*
[87.18, 77.91, 95.31, 53.43, 73.42]

Give PROTEASE % INHIB. for all molecules that follow.
1. CCC[C@@]1(CCc2ccc(F)cc2)CC(O)=C([C@@H](c2cccc(NS(=O)(=O)c3ccc(N)cn3)c2)C(C)(C)C)C(=O)O1 (single isomer, unassigned) [Example 316]
2. CCC[C@]1(CCc2ccc(F)cc2)CC(O)=C([C@H](c2cccc(NS(=O)(=O)c3cn(C)cn3)c2)C(C)(C)C)C(=O)O1 (single isomer, unassigned)

*A*
1. 87.91
2. 87.82
